protocol: DNP solid-state polarization signal and build-up (1.2 K, 3.35 T)
experimental conditions: DNP at 1.2 K
reported metric: Polarization build-up time constant (s)

* CCO[13C](=O)C1CSC(=O)N1 (stereo not drawn) [1-13C OTZ ethyl ester] | 1925
* O=C1CCC([13C](=O)O)N1 (stereo not drawn) [1-13C Pyroglutamic acid, reference compound] | 2000
* C=C(CC(=O)OCC)[13C](=O)OCC [1-13C Itaconate diethyl ester] | 2120
* C=C(CC(=O)O)[13C](=O)O [1-13C Itaconic acid, reference compound] | 1790
* O=C1N[C@H]([13C](=O)O)CS1 [1-13C OTZ, reference compound] | 3500
* CCOC(=O)C1CCC(=O)N1 (stereo not drawn) [1-13C pyroglutamic ethyl ester] | 2070

* * *

protocol: Glass formation of the DNP preparation upon rapid freezing in liquid nitrogen
Type: physicochemical
experimental conditions: with trityl radical, without addition of glass-forming agents
reported metric: Glass formation upon rapid freezing

• CCCC(=O)OC(C)=O [Butyric acetic anhydride] = formed a glass
• C=C(CC(=O)OCC)[13C](=O)OCC [1-13C Itaconate diethyl ester] = formed a glass
• CCOC(=O)CC(C)=O [Ethyl acetoacetate] = formed a glass
• CCO[13C](=O)C1CSC(=O)N1 (stereo not drawn) [1-13C OTZ ethyl ester] = formed a glass
• CCOC(=O)CCC(=O)O = formed a glass
• O=C(O)CC1=CC(=O)OC1=O [Cis-aconitic anhydride, cis-Aconitic anhydride] = formed a glass
• CCOC(=O)C(=O)CCC(=O)O = formed a glass
• CCOC(=O)C(N)Cc1ccccc1 (stereo not drawn) = formed a glass
• CCOC(=O)C(O)CC(=O)O (stereo not drawn) = formed a glass
• CCOC(=O)C1CCC(=O)N1 (stereo not drawn) [1-13C pyroglutamic ethyl ester] = formed a glass
• CCCC(=O)OC(=O)CCC [Butyric anhydride] = formed a glass
